These entries and their values trace back to PubChem BioAssay AID1851.

biological target: Cytochrome P450 2C19 (Homo sapiens); experiment: Cytochrome panel assay with activity outcomes; conditions: recombinant CYP, pro-luciferin dealkylation, luminescence, p450-cyp2c19; series mostly up to 57.1 µM
Out of some 16,000 compounds screened, about 5,800 (36%) were called active. About 23% were inconclusive and are not listed. Some of the results follow.
assay endpoint: AC50

Study these solved cases before continuing.
>>> endpoint_value("CCc1nc(SCC(=O)c2ccc(Cl)s2)c2oc3ccccc3c2n1")
"0.562 µM (active)"
>>> endpoint_value("CCc1nc(SCC(=O)N2CCCc3ccccc32)c2oc3ccccc3c2n1")
"3.98 µM (active)"
>>> endpoint_value("COc1cc(C2C(=O)N(C3CCCC3)CC(=O)N2Cc2ccco2)ccc1OC(C)C (stereo not drawn)")
"4.47 µM (active)"
>>> endpoint_value("O=Nc1c(O)n(Cc2ccc(Cl)cc2)c2ccccc12")
"0.794 µM (active)"
>>> endpoint_value("CN1CCN(c2ccc([N+](=O)[O-])cc2S(=O)(=O)N2CCOCC2)CC1")
"inactive"
>>> endpoint_value("COC(=O)c1ccc(NC(=O)c2ccccc2)o1")
"inactive"
>>> endpoint_value("O=C(O)COC(=O)Cc1ccccc1Nc1c(Cl)cccc1Cl")
"inactive"
>>> endpoint_value("CCOc1c(Cl)cc(C(=O)Nc2ccccc2-c2ccccc2)cc1Cl")
"2.51 µM (active)"
>>> endpoint_value("CN1CCN(CCCN2c3ccccc3Sc3ccc(S(=O)(=O)N(C)C)cc32)CC1")
"inactive"
>>> endpoint_value("CCOCCCN1C(=O)CN(C2CCCCC2)C(=O)C1c1ccc(OCC)c(OC)c1 (stereo not drawn)")
"inactive"

Lookup: I'd like to know its AC50. The compound in question is CN(C(=O)CC(NC(=O)c1ccccc1)(c1ccccc1)c1ccccc1)c1ccccc1
Found: 11.2 µM (active)

Lookup: And what about the compound CC(C)(C)[Si](C)(C)c1c2c(nc3ccc(OCc4ccccc4)cc13)-c1cccc(=O)n1C2 ?
Found: inactive

Lookup: And what about the compound CC(C)NC(=O)N1CCC2(CC1)CCN(C(=O)c1cccn1C)CC2 ?
Found: inactive

Lookup: And what about the compound O=[N+]([O-])c1ccc(/C=N/n2c(COc3ccccc3)n[nH]c2=S)cc1 ?
Found: 11.2 µM (active)

Lookup: And what about the compound O=C(Nc1nc(-c2ccccc2)cs1)c1ccc(Br)o1 ?
Found: 14.1 µM (active)

Lookup: And what about the compound O=C(N/N=C/c1ccc(F)cc1)c1ccc(Br)cc1 ?
Found: inactive

----------
target: Cytochrome P450 2C19 (Homo sapiens); assay: Cytochrome panel assay with activity outcomes; conditions: recombinant CYP, pro-luciferin dealkylation, luminescence, p450-cyp2c19; series mostly up to 57.1 µM
Among all 16,000 compounds or so, about 5,800 (36%) were called active. About 23% were inconclusive and are not listed. The call rests on the fitted dose curve; in most records, active means well fitted curve in the direction sought with a large enough effect; inconclusive means small, poorly fitted or top-dose-only effect, or effect the other way; inactive means no such curve, though single readings can be large or run the other way. Some of the results follow.
Pick one: active, inactive

Lookup: Short answer needed: outcome of this test for Cc1ccc(NC(=O)C2(NC(=O)c3cccc(N4C(=O)CSC4c4ccccc4)c3)CCCCC2)cc1 (stereo not drawn) ?
Found: active

Lookup: And what about the compound Cc1ccccc1-c1cc(NCc2cccnc2)ncn1 ?
Found: active

Lookup: And what about the compound CCSC1=C(C#N)C2(CCCCC2)C(C#N)=C(N)N1 ?
Found: active

Lookup: And what about the compound CO[C@H]1[C@@H](OC(N)=O)[C@H](O)[C@@H](Oc2ccc3c(O)c(NC(=O)c4ccc(O)c(CC=C(C)C)c4)c(=O)oc3c2C)OC1(C)C ?
Found: inactive

Lookup: And what about the compound FC(F)(F)c1ccccc1-c1cc(NCc2cccnc2)ncn1 ?
Found: active

Lookup: And what about the compound CCCNC1CCS(=O)(=O)C1 (stereo not drawn) ?
Found: inactive

Lookup: And what about the compound Cc1ccccc1-c1cc(NCc2ccccc2)ncn1 ?
Found: active

Lookup: And what about the compound CCCCN(C(=S)Nc1ccccc1)C1CCS(=O)(=O)C1 (stereo not drawn) ?
Found: inactive
